# Test system: KE-37;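 also: growth inhibition of KE-37 cells, read out with a cell viability assay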
# assay.remarks: cells
# Format: functional, cell-based, Homo sapiens
# experimental.parameters: Homo sapiens, KE-37
# Description: SANGER: Inhibition of human KE-37 cell growth in a cell viability assay.
reported.property: IC50

Entry `NC(=O)c1ccc(N(C(N)=O)c2c(F)cccc2F)nc1-c1ccc(F)cc1F` : reported IC50 = ? > 2000 nM

# iterate: `NC1(c2ccc(-c3nc4ccn5c(=O)[nH]nc5c4cc3-c3ccccc3)cc2)CCC1` 583 nM

# iterate: `CC(C)C[C@H](NC(=O)[C@H](Cc1ccccc1)NC(=O)c1cnccn1)B(O)O` 2.13 nM

Now let's try a different one.
Entry `COc1ccc(N(C(=O)Oc2c(C)cccc2C)c2ccnc(Nc3ccc(N4CCN(C)CC4)cc3)n2)c(OC)c1` : reported IC50 = ? > 5120 nM
